Substrate: CIS R78G, F116L-EloB/C + F3 (human), Q9NSE2
Assay: SPR
Settings: remark: other sources report otherwise
Quantity kind: IC50
Respond with a number, then the unit of measure.

Problem: Name the recorded IC50 for PVPDYTSIHIV (here or on the partner: phosphotyrosine at 595) [GHR pY595 peptide] .
Solution: 8.8 µM

These measurements were taken from paper PMC8640019.
